# MEASURED ON: T1, variant human BR3-Fc fusion
# T1 construct: produced in CHO cells; also called vBR3-Fc; vhBR3-Fc
# PROTOCOL SUMMARY: BIAcore, Fab over immobilised target
In this section we review reported Kd values for a set of binders.
ASSAY ENDPOINT: Kd (nM)

• Hu11G9-46 Fab (Fab, V domains shown, Fab) VH: EVQLVESGGGLVQPGGSLRLSCAASGDSITSGYWNWVRQAPGKGLEWVGYISYSGSTYYNPSLKSRFTISRDTSKNTFYLQMNSLRAEDTAVYYCAGLNDLYLYFDVWGQGTLVTVSS VL: DIQMTQSPSSLSASVGDRVTITCRSSQSLVHSNGNTYLHWYQQKPGKAPKLLIYKVSNRFSGVPSRFSGSGSGTDFTLTISSLQPEDFATYYCSQSTHVPPFTFGQGTKVEIKR = 5.4
• Hu9.1-73 Fab (Fab, V domains shown, Fab expressed in E. coli) VH: EVQLVESGGGLVQPGGSLRLSCAASGLPMAGFYTSWVRQAPGKGLEWVGFIRDKANGYTTEYNPSVKGRFTISADTSKNTAYLQMNSLRAEDTAVYYCAQVRRALDYWGQGTLVTVSS VL: DIQMTQSPSSLSASVGDRVTITCKSSQSLLYSSNQNNYLAWYQQKPGKAPKLLIYWAQHLDSGVPSRFSGSGSGTDFTLTISSLQPEDFATYYCQQYYTYPYTFGQGTKVEIKR = 0.45
• Hu9.1-70 Fab (Fab, V domains shown, Fab) VH: EVQLVESGGGLVQPGGSLRLSCAASDSPRSGYYISWVRQAPGKGLEWVGFIRDKANGYTTEYNPSVKGRFTISADTSKNTAYLQMNSLRAEDTAVYYCAQVRRALDYWGQGTLVTVSS VL: DIQMTQSPSSLSASVGDRVTITCKSSQSLLYSSNQNNYLAWYQQKPGKAPKLLIYWASIRDSGVPSRFSGSGSGTDFTLTISSLQPEDFATYYCQQYYTYPYTFGQGTKVEIKR = 0.78
• Hu9.1-88 Fab (Fab, V domains shown, Fab) VH: EVQLVESGGGLVQPGGSLRLSCAASGFPVTGSYVSWVRQAPGKGLEWVGFIRDKANGYTTEYNPSVKGRFTISRDTSKNTLYLQMNSLRAEDTAVYYCAQVRRALDYWGQGTLVTVSS VL: DIQMTQSPSSLSASVGDRVTITCKSSQSLLYSSNQNNYLAWYQQKPGKAPKLLIYWASTRESGVPSRFSGSGSGTDFTLTISSLQPEDFATYYCQQYYTYPYTFGQGTKVEIKR = 11
